test system: Escherichia coli TOP10; assay: shrunken log2 fold change of peptide-encoding DNA abundance (4.5 h post-induction vs induction); higher = less antimicrobial activity (less host growth inhibition); settings: time post-induction: 4.5 h; library: site-saturation at positions 5, 18, 19, 20
Measure name: shrunken log2 fold change
Lab note: write the figure by itself, no unit.

Reference set (10 entries):
chain=RRIRIRPPRLPRPRPRPIQTPRP value=-0.0155
chain=RRIRDRPPRLPRPRPRPNMRPRP value=-0.00803
chain=RRIRLRPPRLPRPRPRPWANPRP value=0.0875
chain=RRIRPRPPRLPRPRPRPSVSPRP value=-0.504
chain=RRIRYRPPRLPRPRPRPKHAPRP value=-0.0577
chain=RRIRMRPPRLPRPRPRPSFLPRP value=-0.121
chain=RRIRIRPPRLPRPRPRPYQHPRP value=-0.136
chain=RRIRWRPPRLPRPRPRPGEYPRP value=0.147
chain=RRIRHRPPRLPRPRPRPWDIPRP value=0.0726
chain=RRIRIRPPRLPRPRPRPGCCPRP value=-0.04

**Query** Short answer please: shrunken log2 fold change, Escherichia coli TOP10, entry RRIRIRPPRLPRPRPRPHKSPRP
**Result** -1.18

**Query** Now this one: RRIRLRPPRLPRPRPRPLWCPRP
**Result** 0.159

**Query** Also RRIRWRPPRLPRPRPRPDDYPRP , if possible.
**Result** 0.0299

**Query** Further, for RRIRDRPPRLPRPRPRPWGAPRP ?
**Result** 0.305

**Query** Subsequent entry: RRIRQRPPRLPRPRPRPICTPRP
**Result** -0.0531

###

# key: entry, value: shrunken log2 fold change
tested on: Escherichia coli TOP10; assay: shrunken log2 fold change of peptide-encoding DNA abundance (4.5 h post-induction vs induction); higher = less antimicrobial activity (less host growth inhibition); details: time post-induction: 4.5 h; library: site-saturation at positions 5, 18, 19, 20

**Query** Please look up its shrunken log2 fold change: RRIRDRPPRLPRPRPRPLMEPRP
**Result** 0.117

**Query** Queued: RRIRYRPPRLPRPRPRPVSSPRP
**Result** -0.272

**Query** Cool, now RRIRWRPPRLPRPRPRPDATPRP
**Result** 2.57

**Query** Do the same for RRIRGRPPRLPRPRPRPFIAPRP please
**Result** 0.245

###

// reported shrunken log2 fold change per item
tested on: Escherichia coli TOP10; experiment: shrunken log2 fold change of peptide-encoding DNA abundance (4.5 h post-induction vs induction); higher = less antimicrobial activity (less host growth inhibition); conditions: time post-induction: 4.5 h; library: site-saturation at positions 5, 18, 19, 20;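 also: peptides expressed intracellularly from a pBAD plasmid library in pooled LB shake-flask culture, induced with 0.3% L-arabinose, DNA abundance read by NGS, three biological replicates, DESeq2 with apeglm shrinkage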
Reply with the value as a number alone.

chain=RRIRPRPPRLPRPRPRPGRVPRP measure_name="shrunken log2 fold change" value=0.318

**Query** May I ask what shrunken log2 fold change has been recorded for RRIRFRPPRLPRPRPRPAHDPRP ?
**Result** 0.0907

**Query** Try the sequence RRIRERPPRLPRPRPRPYFKPRP
**Result** -0.258

**Query** Note, next up: RRIRFRPPRLPRPRPRPPDEPRP
**Result** 0.684

**Query** Please give the result for RRIRGRPPRLPRPRPRPEIRPRP too.
**Result** 0.122

**Query** Next record, please: RRIRRRPPRLPRPRPRPKCEPRP
**Result** 0.0268

**Query** Field entry: RRIRYRPPRLPRPRPRPMYNPRP
**Result** -1.23

**Query** Param item: RRIRDRPPRLPRPRPRPGGDPRP
**Result** 0.908

**Query** Please give the result for RRIRTRPPRLPRPRPRPCTPPRP too.
**Result** -0.214

**Query** Moving on to the next sequence: RRIRIRPPRLPRPRPRPRKYPRP
**Result** -0.561
